Values from patent US20080051418A1

- SYSTEM_UNDER_TEST: PPARγ-RXRα heterodimer (Homo sapiens, UniProt P37231)
- Sequence (P37231 whole entry): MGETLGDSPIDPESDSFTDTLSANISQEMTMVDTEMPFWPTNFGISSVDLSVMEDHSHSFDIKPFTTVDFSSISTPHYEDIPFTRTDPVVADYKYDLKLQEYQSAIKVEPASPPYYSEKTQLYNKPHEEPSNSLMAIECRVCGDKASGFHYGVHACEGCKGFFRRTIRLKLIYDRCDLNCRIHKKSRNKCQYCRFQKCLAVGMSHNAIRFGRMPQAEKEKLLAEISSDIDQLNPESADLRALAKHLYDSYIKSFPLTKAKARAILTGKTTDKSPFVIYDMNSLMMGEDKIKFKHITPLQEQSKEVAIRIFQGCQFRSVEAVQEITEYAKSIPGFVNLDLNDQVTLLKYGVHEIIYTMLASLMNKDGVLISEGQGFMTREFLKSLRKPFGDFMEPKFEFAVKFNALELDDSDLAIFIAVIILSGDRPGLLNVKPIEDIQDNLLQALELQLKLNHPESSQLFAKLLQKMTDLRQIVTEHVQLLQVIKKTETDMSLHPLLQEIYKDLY
- Sequence (P19793 whole entry partner): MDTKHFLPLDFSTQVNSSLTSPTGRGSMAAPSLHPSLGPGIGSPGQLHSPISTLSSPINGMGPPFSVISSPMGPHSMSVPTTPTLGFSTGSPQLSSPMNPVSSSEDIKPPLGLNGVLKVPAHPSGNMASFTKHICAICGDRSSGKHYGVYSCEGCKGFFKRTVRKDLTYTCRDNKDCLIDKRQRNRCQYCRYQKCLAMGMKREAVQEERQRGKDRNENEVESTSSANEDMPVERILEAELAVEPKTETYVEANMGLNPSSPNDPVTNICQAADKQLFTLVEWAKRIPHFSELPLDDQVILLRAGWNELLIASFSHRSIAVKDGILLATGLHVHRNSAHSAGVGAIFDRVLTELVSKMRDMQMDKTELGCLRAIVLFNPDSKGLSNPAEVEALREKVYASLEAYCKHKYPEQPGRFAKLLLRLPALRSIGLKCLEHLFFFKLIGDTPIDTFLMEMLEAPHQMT
- ASSAY_SUMMARY: PPARγ-RXRα heterodimer ligand activity (luciferase reporter)
- TEST_CONTEXT: PPARγ:RXRα:4ERPP/CHO-K1 cells, 18-24 hr, concentration showing 50% of the maximum induction rate
Field: label. Allowed values: Met (EC50 < 10 nM) or Not met (EC50 >= 10 nM).

COMPOUND: CC(C)Oc1ccc(CCCOc2cc(CCC(=O)O)n(Cc3ccccc3)n2)c(Oc2ncc(C(F)(F)F)cc2Cl)c1 [Example 137]
ANSWER_LABEL: Met
--
COMPOUND: CC(C)OCCOc1ccc(CCCOc2nn(C)cc2CC(=O)O)c(Oc2ncc(C(F)(F)F)cc2Cl)c1 [Example 177]
ANSWER_LABEL: Met
--
COMPOUND: COCOc1ccc(CCCOc2nn(C)cc2CC(=O)O)c(Oc2ncc(C(F)(F)F)cc2Cl)c1 [Example 111]
ANSWER_LABEL: Met
--
COMPOUND: CC(C)c1cc(CCCOc2ncccc2CC(=O)O)n(Cc2ccc(C(F)(F)F)cc2Cl)n1 [Example 77]
ANSWER_LABEL: Met
--
COMPOUND: COc1cccc(CC(=O)O)c1OCCCc1cc(OC(C)C)nn1Cc1ccccc1Cl [Example 61]
ANSWER_LABEL: Not met
--
COMPOUND: COc1cccc(CC(=O)O)c1OCCCc1cc(OC(C)C)nn1Cc1ccc(Cl)cc1Cl [Example 16]
ANSWER_LABEL: Met
--
COMPOUND: CC(C)c1cc(CCCOc2nn(C)cc2CC(=O)O)n(Cc2ccc(Cl)cc2Cl)n1 [Example 33]
ANSWER_LABEL: Not met
--
COMPOUND: COc1cccc(CC(=O)O)c1OCCCc1cc(OC(C)C)nn1Cc1ccc(C(F)(F)F)cc1 [Example 51]
ANSWER_LABEL: Not met
--
COMPOUND: COCCOc1ccc(CCCOc2cc(CCC(=O)O)n(-c3ccccc3)n2)c(Oc2ncc(C(F)(F)F)cc2Cl)c1 [Example 147]
ANSWER_LABEL: Met
--
COMPOUND: CC(C)Oc1ccc(CCCOc2nn(C)cc2CCC(=O)O)c(Oc2ncc(C(F)(F)F)cc2Cl)c1 [Example 145]
ANSWER_LABEL: Met
--
COMPOUND: Cc1cc(Cl)ccc1Cn1nc(OC(C)C)cc1CCCOc1nn(Cc2ccccc2)cc1CC(=O)O [Example 73]
ANSWER_LABEL: Met
--
COMPOUND: CC(C)Oc1cc(CCCOc2ccc3ccccc3c2CC(=O)O)n(Cc2ccc(Cl)cc2Cl)n1 [Example 85]
ANSWER_LABEL: Met
--
COMPOUND: CC(C)Oc1cc(CCCOc2ncccc2CC(=O)O)n(Cc2ccc(Cl)cc2Cl)n1 [Example 31]
ANSWER_LABEL: Not met
--
COMPOUND: CC(C)Oc1ccc(CCCOc2cc(CCC(=O)O)n(-c3ccccc3)n2)c(OCc2ccc(C(F)(F)F)cc2)c1 [Example 166]
ANSWER_LABEL: Not met
--
COMPOUND: CCCOc1cc(CCCOc2c(CC(=O)O)cccc2OC)n(Cc2ccccc2OC)n1 [Example 83]
ANSWER_LABEL: Not met
--
COMPOUND: CCn1cc(CC(=O)O)c(OCCCc2ccc(OC(C)C)cc2Oc2ncc(Cl)cc2Cl)n1 [Example 120]
ANSWER_LABEL: Met
